Just for reference, ChEMBL document CHEMBL3433997 is where these values come from.

Consider the following compounds; for each one, report its inhibition.
assay system: Glucose transporter (Leishmania mexicana) (UniProt O61059)
test summary: ST_JUDE_LEISH: Cytotoxicity at 2uM final concentration against transgenic Leishmania Mexicana promastigotes LmGT2 that are glucose transport deficient and complemented with the L. Mexicana glucose transporter 2. Activity is measured by DNA content using SYBR green in vitro
Format: functional
Hi! Could you send only the number? It should be in %, unit omitted.

Inquiry: // lookup inhibition for O=C(N[C@@H](Cc1ccccc1)C(=O)NC1CCCc2ccccc21)c1ccc(O)c(-c2cccc(C(F)(F)F)c2)c1 (stereo not given in full)
Reply text: -1.61

Inquiry: // lookup inhibition for CC(OC(=O)c1ccc(C(=O)NCC2CC2)cc1)C(C)(C)C (stereo not given)
Reply text: -0.96

Inquiry: // lookup inhibition for COc1ccc2nc(-c3ccccc3)cc(NCCN(C)C)c2c1
Reply text: 4.86

Inquiry: // lookup inhibition for Cc1ccccc1C1CCN(C2CCC(NC(=O)/C=C/c3ccc(F)c(F)c3)CC2)CC1 (stereo not given)
Reply text: -1.27

Inquiry: // lookup inhibition for CC(=O)c1cccc(Nc2nc3ccc(OCc4cc(Cl)cc(Cl)c4)c(C#N)c3[nH]2)c1
Reply text: 2.87

Inquiry: // lookup inhibition for O=C1Nc2cccc3c2C1(CCCN1CCC(c2c[nH]c4cc(C(F)(F)F)ccc24)CC1)CCC3 (stereo not given)
Reply text: -0.71

Inquiry: // lookup inhibition for COc1cc(C)nc2ccc(NC(=O)Nc3ccccc3[N+](=O)[O-])cc12
Reply text: 1.8

Inquiry: // lookup inhibition for Clc1ccccc1CNc1noc(-c2sccc2Br)n1
Reply text: 1.17

Inquiry: // lookup inhibition for N#CCc1ccc(Nc2nccc(Nc3ccc(Oc4ccccc4)cc3)n2)cc1
Reply text: 1.09

Inquiry: // lookup inhibition for CC(C)(C)OC(=O)NCCc1cccc(-c2c[nH]c3ncc(-c4cccc(NS(C)(=O)=O)c4)cc23)c1
Reply text: 7.65

Inquiry: // lookup inhibition for Cc1c(Cc2ccccc2Cl)cnc2nc(N)nc(N)c12
Reply text: 24.1

Inquiry: // lookup inhibition for COc1ccc(CN(C)CCCc2ccc(NC(=O)Cc3ccc4nc(-c5ccccc5)ccc4c3)cc2)cc1OC
Reply text: 6.65

Inquiry: // lookup inhibition for Cc1cc(O)c(C(C)C)cc1C1(c2cc(C(C)C)c(O)cc2C)OC(=O)c2ccccc21
Reply text: 6.75

Inquiry: // lookup inhibition for CN(C)CCOc1cc(NC(=O)Nc2ccc(-c3ccccc3)cc2)ccc1I
Reply text: 12.6

Inquiry: // lookup inhibition for COc1ccc(NC(=O)Nc2cc(C)nc3ccccc23)cc1Cl
Reply text: 7.39

Inquiry: // lookup inhibition for CC(C)(C)CC(C)(C)c1ccc(O)c(C(=O)Nc2ccc([N+](=O)[O-])cc2)c1
Reply text: 0.23

Inquiry: // lookup inhibition for COc1cc(C(=O)Nc2nc3ccccc3[nH]2)ccc1OCC(=O)Nc1cccc(C(F)(F)F)c1
Reply text: 1.11

Inquiry: // lookup inhibition for CC(C)CCNc1nc2ccccc2nc1Nc1cccc(C(F)(F)F)c1
Reply text: 2.32

Inquiry: // lookup inhibition for CCOC(=O)CN(c1ccc(Br)cc1OCCOc1cc(Br)ccc1N(CC(=O)OCC)C(C)C(=O)OCC)C(C)C(=O)OCC (stereo not given)
Reply text: 1.37

Inquiry: // lookup inhibition for COc1ccc2nc3cc(Cl)ccc3c(NCCO)c2c1
Reply text: 2.4
